Recorded hERG current change (%, negative = inhibition) at 10uM by entry
# system name: human ether-à-go-go-related gene (hERG) potassium channel (human, UniProt Q12809);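 note: peak tail current of the secondary pulse compared with the same well before compound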
# Sequence (Q12809 whole entry, looked up): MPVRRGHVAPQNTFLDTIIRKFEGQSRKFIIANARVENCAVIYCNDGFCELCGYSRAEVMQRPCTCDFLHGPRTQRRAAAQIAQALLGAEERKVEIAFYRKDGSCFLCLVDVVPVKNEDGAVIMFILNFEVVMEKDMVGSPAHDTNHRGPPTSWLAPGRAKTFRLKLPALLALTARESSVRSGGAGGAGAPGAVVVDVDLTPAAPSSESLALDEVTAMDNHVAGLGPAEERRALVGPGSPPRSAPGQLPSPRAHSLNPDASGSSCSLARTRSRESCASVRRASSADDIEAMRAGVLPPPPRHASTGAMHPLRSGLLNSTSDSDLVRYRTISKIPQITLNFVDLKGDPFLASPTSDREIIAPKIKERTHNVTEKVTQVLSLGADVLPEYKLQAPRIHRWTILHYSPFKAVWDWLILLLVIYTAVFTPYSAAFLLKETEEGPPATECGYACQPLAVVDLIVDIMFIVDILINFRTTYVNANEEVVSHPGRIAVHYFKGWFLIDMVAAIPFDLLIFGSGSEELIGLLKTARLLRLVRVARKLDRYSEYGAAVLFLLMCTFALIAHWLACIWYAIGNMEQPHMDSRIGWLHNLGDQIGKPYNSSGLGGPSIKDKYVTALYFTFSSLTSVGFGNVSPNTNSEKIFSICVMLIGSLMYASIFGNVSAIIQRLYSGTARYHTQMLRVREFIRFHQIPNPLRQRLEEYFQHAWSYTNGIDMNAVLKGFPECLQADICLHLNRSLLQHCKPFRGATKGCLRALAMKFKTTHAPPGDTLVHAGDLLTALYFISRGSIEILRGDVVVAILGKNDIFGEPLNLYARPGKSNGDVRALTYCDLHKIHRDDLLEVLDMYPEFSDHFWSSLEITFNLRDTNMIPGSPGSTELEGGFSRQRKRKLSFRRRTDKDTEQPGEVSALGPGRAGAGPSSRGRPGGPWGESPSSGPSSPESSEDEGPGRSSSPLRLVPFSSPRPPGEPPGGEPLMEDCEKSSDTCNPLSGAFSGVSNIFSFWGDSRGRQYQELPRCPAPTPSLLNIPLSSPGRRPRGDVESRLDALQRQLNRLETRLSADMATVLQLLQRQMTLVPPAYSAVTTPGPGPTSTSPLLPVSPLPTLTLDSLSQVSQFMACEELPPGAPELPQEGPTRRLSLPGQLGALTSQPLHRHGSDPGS
# protocol: primary screen, population patch clamp on CHO cells stably expressing hERG; higher = less effect of the substance
In all, about 310,000 compounds went through this assay and about 14,000 (4.5%) showed an effect of 50% or more. Effects have a minus sign here. This excerpt belongs to a sample that is enriched for strong results.
recorded endpoint: hERG current change (%, negative = inhibition) at 10uM (%)

* O=C(CCN1CCN(Cc2ccccc2)CC1)NNC(=O)Nc1cccc(Cl)c1 | -47
* CC(NC(=O)c1ccc(CS(C)(=O)=O)cc1)c1ccc(-n2ccnc2)cc1 (stereo not drawn) | -1.32
* COCCCNC(=O)c1oc2ccc(S(=O)(=O)N(C)C3CCCCC3)cc2c1C | -4.45
* CC1CCN(S(=O)(=O)c2ccc3c4c2CC(=O)N4CC(C)S3)CC1 (stereo not drawn) | 7.22
* Cl.O=C(CNC1CCN(Cc2ccccc2)CC1)Nc1ccc(S(=O)(=O)N2CCCCC2)cc1 | -69.7
* COC(=NC1CCCC1)C(O)c1c[nH]c2ccccc12 (stereo not drawn) | -1.61
* Cc1nc2ccccc2nc1CSc1nncs1 | 5.39
* O=C(CSc1ncccn1)N/N=C/c1ccccc1[N+](=O)[O-] | 11.3
* CC(C)C[C@H](NC(=O)N1CC(=O)Nc2ccccc21)C(=O)N[C@@H](Cc1ccccc1)C(=O)O | 13.2
* CCOC(=O)C1CCN(S(=O)(=O)c2ccc3c4c(cccc24)C(=O)N3)CC1 | -54.6
* O=S(=O)(/N=C(/Nc1ccc(F)cc1F)c1ccccc1)c1ccc(Br)cc1 | 12.3
* O=C(COC(=O)CCc1nc2ccccc2c(=O)[nH]1)Nc1ccc(OC(F)(F)F)cc1 | -5.93
* CCOC(=O)CC1=NN(c2ccccc2)C(=O)/C1=C\c1ccc(N(C)C)cc1 | 24.6
* Cc1ccc(-n2c(=O)cc(N3CC(C)CC(C)C3)[nH]c2=O)cc1 (stereo not drawn) | 23.7
* CCN1C(=O)c2cccc3c(S(=O)(=O)N4CCC(C)CC4)ccc1c23 | -16.8
* N#Cc1cccc(NC(=O)Cc2ccccc2)c1 | 13.6
* Cc1ccc(C)c(C(=O)NC(C)c2ccc(-n3ccnc3)cc2)c1 (stereo not drawn) | -62.4
* Cc1cc2nc(CCN3CCOCC3)n(S(=O)(=O)c3ccc(C(C)(C)C)cc3)c2cc1C | -3.7
* COc1ccc2nc(-c3ccccc3)[nH]c2c1 | -1.4
* CN(C)/C=C1\NC(=S)N(c2ccccc2)C1=O | 28.4
* Cc1cc(C)n2nc(C(=O)OCC(=O)N3C(C)CCCC3C)nc2n1 (stereo not drawn) | 21.5
* COc1cc(/C=C/c2[nH]c(=O)[nH]c(=O)c2[N+](=O)[O-])cc(OC)c1O | 7.26
* O=C1Nc2ccc(S(=O)(=O)N3CCCC3)c3cccc1c23 | -7.57
* C/C(=N\NC(=O)c1ccc(C)cc1C)c1ccc(-n2ccnc2)cc1 | -16.6

* * *

Recorded hERG current change (%, negative = inhibition) at 10uM by entry
# system name: human ether-à-go-go-related gene (hERG) potassium channel (human, UniProt Q12809);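 note: peak tail current of the secondary pulse compared with the same well before compound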
# protocol: primary screen, population patch clamp on CHO cells stably expressing hERG; higher = less effect of the substance
Hit rate of the full screen: of about 310,000 compounds, about 14,000 (4.5%) showed an effect of 50% or more. The effect is printed as a negative number. The full list was thinned out, with strong results kept by preference.
recorded endpoint: hERG current change (%, negative = inhibition) at 10uM

* Cc1cc(OC(C)C(=O)N[C@H](C(=O)O)c2ccccc2)c2c3c(c(=O)oc2c1)CCC3 (some centres unmarked) | -3.23%
* CC(C)c1ccc(NC2CCCN(C(=O)c3n[nH]c4c3CCC4)C2)cc1 (centres unmarked) | 5.38%
* CCN1CCCC1CNC(=O)c1cc2c(-c3ccc(Cl)cc3)nn(C)c2s1 (centres unmarked) | -62.4%
* C/C(=N/NC(N)=S)c1cc2ccc(O)cc2oc1=O | 21.7%
* COc1ccc(C2C3=C(CC(C)(C)CC3=O)Oc3ncn(Cc4ccccc4)c(=N)c32)cc1 (centres unmarked) | -55.5%
* Cn1c(-c2ccccc2)cc2ccccc21 | 9.39%
* COc1ccc(C2C3=C(CC(C)(C)CC3=O)Nc3c2c(=O)[nH]c(=O)n3Cc2ccccc2)cc1 (centres unmarked) | 8.57%
* O=C(NNc1nc2ccccc2nc1C(F)(F)F)c1ccccc1 | 11.9%
